# Assayed system: T1, Ven-SH3 (Gads, aa.256-322) (mouse, UniProt O89100 256-322)
# T1 sequence (looked up): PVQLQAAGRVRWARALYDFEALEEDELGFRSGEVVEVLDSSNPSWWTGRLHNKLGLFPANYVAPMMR
# Measurement description: FRET or BRET
Each record is given fulfilled if its reported Kd is strictly below 7 µM. Records at or above 7 µM are given not fulfilled.

A selection of reference data follows.
PAPSIDRSTRPPL (peptide, UniProt Q13094 231-243, looked up) [Cer-SLP-76 (K240R), aa.231-243] ... not fulfilled
PAPSIDRSTKPPL (peptide, UniProt Q13094 231-243, looked up) [Cer-SLP-76, aa.231-243] ... fulfilled
EPPPVDRNLKPDR (peptide, UniProt Q13480 515-527, looked up) [Cer-Gab1, aa.515-527] ... fulfilled

For the next question, use this binder.
IN: Dear colleague, could you confirm whether Kd of NVPQIDRTKKPAV (peptide, UniProt P40818 403-415, looked up) [Cer-USP8, aa.403-415] falls below 7 µM? Thanks.
OUT: fulfilled
